// provenance: patent US10865208B2

assay_system: recombinant human His-ATG7 enzyme (Homo sapiens (Human), UniProt O95352)
Sequence (O95352 whole entry): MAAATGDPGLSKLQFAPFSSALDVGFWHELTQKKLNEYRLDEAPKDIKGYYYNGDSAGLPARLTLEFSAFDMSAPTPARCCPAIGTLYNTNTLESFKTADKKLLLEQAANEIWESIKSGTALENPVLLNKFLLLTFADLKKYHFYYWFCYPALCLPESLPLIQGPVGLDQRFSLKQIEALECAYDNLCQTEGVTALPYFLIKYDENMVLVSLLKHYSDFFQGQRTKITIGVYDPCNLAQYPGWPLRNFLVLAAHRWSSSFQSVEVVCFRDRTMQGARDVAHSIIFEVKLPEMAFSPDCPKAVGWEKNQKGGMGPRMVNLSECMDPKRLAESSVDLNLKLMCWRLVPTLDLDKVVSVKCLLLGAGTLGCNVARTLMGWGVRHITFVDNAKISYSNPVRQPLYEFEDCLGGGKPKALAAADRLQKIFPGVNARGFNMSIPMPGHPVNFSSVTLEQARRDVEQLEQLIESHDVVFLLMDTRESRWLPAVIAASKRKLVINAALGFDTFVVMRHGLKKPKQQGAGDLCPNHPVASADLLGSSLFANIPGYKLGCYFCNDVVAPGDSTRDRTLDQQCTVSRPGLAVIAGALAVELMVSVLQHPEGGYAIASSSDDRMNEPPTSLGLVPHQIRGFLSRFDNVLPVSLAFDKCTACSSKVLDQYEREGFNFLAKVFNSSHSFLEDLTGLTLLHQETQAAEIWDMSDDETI
assay_explanation: ATG7 Enzyme Assay (HTRF/FRET, ATG3-GST and Flag-Gabarap)
pIC50: −log10 of the molar value.
value_kind: pIC50

Nc1ncnc2c1c(Sc1cccc(Cl)c1)nn2[C@@H]1O[C@H](COS(N)(=O)=O)[C@@H](O)[C@@H]1F [Compound I-106] | 7.30 to 7.70
CC(C)(C)Sc1nn([C@H]2C[C@H](O)[C@@H](COS(N)(=O)=O)O2)c2ncnc(N)c12 [Compound I-177] | 7.30 to 7.70
CC(C)(C)c1ccc(Sc2nn([C@H]3C[C@H](O)[C@@H](COS(N)(=O)=O)O3)c3ncnc(N)c23)cc1 [Compound I-163] | 7.00 to 7.30

query: Reported pIC50, molecule Nc1ncnc2c1c(Sc1cccc(F)c1)nn2[C@@H]1O[C@H](COS(N)(=O)=O)[C@@H](O)[C@@H]1F [Compound I-116] : ____
result: 7.30 to 7.70

query: Tell me the measured pIC50 of Nc1ncnc2c1c(SCc1cccnc1)nn2[C@@H]1O[C@H](COS(N)(=O)=O)[C@@H](O)[C@H]1O [Compound I-45] , please.
result: 7.30 to 7.70

query: Given COc1nn([C@H]2C[C@H](O)[C@H](COS(N)(=O)=O)O2)c2ncnc(N)c12 [Compound I-225] , state its recorded pIC50.
result: < 6.30

query: Field request: pIC50 | item: C=CCOc1nn([C@@H]2O[C@H](COS(N)(=O)=O)[C@@H](O)[C@H]2O)c2ncnc(N)c12 [Compound I-71]
result: 6.30 to 7.00
